# measured.on: HEPN domain of sacsin (GST-HEPN) (Homo sapiens, UniProt Q9NZJ4)
# Construct: The HEPN domain (residues 4441–4579) was purified as in Kozlov et al; made in house; host or cells: E. coli BL21
# Sequence (Q9NZJ4 4441-4579): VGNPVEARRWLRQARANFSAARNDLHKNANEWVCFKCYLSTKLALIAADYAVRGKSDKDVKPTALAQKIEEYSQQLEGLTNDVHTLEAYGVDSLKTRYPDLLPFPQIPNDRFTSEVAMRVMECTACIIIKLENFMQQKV
# assay.method.text: FP competition assay (displacement of F12-ATP from GST-HEPN)
# Format: binding
# assay.conditions: HTS hit confirmation; 5 nM F12-ATP and 200 nM GST-HEPN; read-out: Binding Affinity for HEPN
compounds and their reported Kd

Task: Form field - read-out: Kd; system: HEPN domain of sacsin (GST-HEPN) (Homo sapiens, UniProt Q9NZJ4); submitted item: O=C(Nc1cccc2c(=O)[nH][nH]c(=O)c12)c1ccc(=O)oc1
Result: 2800 nM

Task: Next compound up: O=C(OCCCl)Oc1c(Br)cc2sc(=O)oc2c1Br
Result: 9400 nM

Task: Next compound up: O=c1c(C(c2ccc3c(c2)OCO3)c2c(O)nc3n(c2=O)CCS3)c(O)nc2n1CCS2
Result: 1100 nM

Task: Next compound up: Cc1ccccc1NS(=O)(=O)c1ccc(NC(=O)c2n[nH]c([N+](=O)[O-])c2Br)cc1
Result: 2100 nM

====

# measured.on: HEPN domain of sacsin (GST-HEPN) (Homo sapiens, UniProt Q9NZJ4)
# Construct: The HEPN domain (residues 4441–4579) was purified as in Kozlov et al; made in house; host or cells: E. coli BL21
# assay.method.text: FP competition assay (displacement of F12-ATP from GST-HEPN)
# Type: binding
# assay.conditions: 5 nM F12-ATP and 120 nM GST-HEPN; read-out: affinity for GST-HEPN estimated from FP competition curve, Kd
Exam item: assign Condition met to entries whose Kd is below 20 µM and Condition not met to entries at or above 20 µM. Note that a value of exactly 20 µM receives Condition not met.

The following compounds have reported results that may help.
O=P(O)(O)OC1C(OP(=O)(O)O)C(OP(=O)(O)O)C(OP(=O)(O)O)C(OP(=O)(O)O)C1OP(=O)(O)O (centres unmarked) [IP6] = Condition met
Nc1ncnc2c1ncn2[C@@H]1O[C@H](COP(=O)(O)O)[C@@H](O)[C@H]1O [AMP, adenosine 5´-monophosphate] = Condition not met

Task: # strict comparison: is reported Kd < 20 µM? input = Nc1nc2c(ncn2[C@@H]2O[C@H](COP(=O)(O)OP(=O)(O)OP(=O)(O)OP(=O)(O)OC[C@H]3O[C@@H](n4cnc5c(=O)[nH]c(N)nc54)[C@H](O)[C@@H]3O)[C@@H](O)[C@H]2O)c(=O)[nH]1 [Gp4G, p1, p4-di(guanosine-5´) tetraphosphate]
Result: Condition met

Task: Next compound up: Nc1ncnc2c1ncn2[C@@H]1O[C@H](COP(=O)(O)OP(=O)(O)O)[C@@H](O)[C@H]1O [ADP, adenosine 5´-diphosphate]
Result: Condition met

Task: Next compound up: Nc1nc2c(ncn2[C@@H]2O[C@H](COP(=O)(O)OP(=O)(O)O)[C@@H](O)[C@H]2O)c(=O)[nH]1 [GDP, guanosine 5´-diphosphate]
Result: Condition met

Task: Next compound up: Nc1ncnc2c1ncn2[C@@H]1O[C@H](COP(=O)(O)OP(=O)(O)OP(=O)(O)OC[C@H]2O[C@@H](n3cnc4c(N)ncnc43)[C@H](O)[C@@H]2O)[C@@H](O)[C@H]1O [Ap3A, p1, p3-di(adenosine-5´) triphosphate]
Result: Condition not met
